The reported numbers originate from patent US11098077B2.

# subject_of_test: hSTING REF allele (Homo sapiens, UniProt Q86WV6)
# Construct: DNA encoding amino acids 140-379 (amino acid numbering corresponding to Swiss Prot Q86WV6); 6xHIS (N, cleaved yes); SUMO (N, cleaved yes); made in house; host or cells: Rosetta2 (DE3) E. coli
# Sequence (Q86WV6 140-379): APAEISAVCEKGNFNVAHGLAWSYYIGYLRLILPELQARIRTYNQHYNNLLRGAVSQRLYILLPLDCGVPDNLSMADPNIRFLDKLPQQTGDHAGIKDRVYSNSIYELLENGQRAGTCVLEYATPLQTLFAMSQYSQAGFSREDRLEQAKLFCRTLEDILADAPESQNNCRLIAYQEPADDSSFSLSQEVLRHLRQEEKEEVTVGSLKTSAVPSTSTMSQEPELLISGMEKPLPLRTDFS
# protocol_details: Differential scanning fluorometry (DSF) binding to purified STING AA140-379, REF allele
# condition_notes: DSF; ligand 1 mM; 1 mg/ml STING AA140-379
property_label: hSTING Tm Shift REF (°C)
Just the number please, in °C, no unit attached.

Please give the measured hSTING Tm Shift REF for this compound: Nc1ncnc2c1ncn2[C@@H]1O[C@@H]2CO[P@@](=O)(S)O[C@H]3[C@H]4OC[C@]3(CO[P@@](=O)(S)O[C@@H]1[C@@H]2F)O[C@H]4n1cnc2c(N)ncnc21 [Compound 27a]
10.2

***
Please give the measured hSTING Tm Shift REF for this compound: Nc1ncnc2c1ncn2[C@@H]1O[C@@]23CO[C@@H]1[C@@H]2O[P@@](=O)(S)OC[C@@]12CO[C@@H]([C@H](n4cnc5c(N)ncnc54)O1)[C@@H]2O[P@](=O)(S)OC3 [Compound 5b]
8.7

Please give the measured hSTING Tm Shift REF for this compound: Nc1nc2c(ncn2[C@@H]2O[C@@]34CO[C@@H]2[C@@H]3O[P@](=O)(S)OC[C@H]2O[C@@H](n3cnc5c(N)ncnc53)[C@H](O)[C@@H]2O[P@](=O)(S)OC4)c(=O)[nH]1 [Compound 33a, 3′3′-RR-(A)(2′O,4′C-LNA-G)]
11.9

Please give the measured hSTING Tm Shift REF for this compound: Nc1ncnc2c1ncn2[C@@H]1O[C@@H]2CO[P@](=O)(S)O[C@H]3[C@H]4OC[C@]3(CO[P@](=O)(S)O[C@@H]1[C@@H]2O)O[C@H]4n1cnc2c(N)ncnc21 [Compound 10d]
3.2

Please give the measured hSTING Tm Shift REF for this compound: O=C(Nc1ncnc2c1ncn2[C@@H]1O[C@@]23CO[C@@H]1[C@@H]2O[P@@](=O)(S)OC[C@@H]1C[C@@H](O[P@](=O)(S)OC3)[C@H](n2cnc3c(NC(=O)c4ccccc4)ncnc32)O1)c1ccccc1 [Compound 22b]
4.6
